These entries and their values trace back to PubChem BioAssay AID1259407.

# Test system: CCRIS mutagenicity, Ames/micronucleus/aberration tests
# assay_remarks: CCRIS mutagenicity studies
# details: Test System: AMES SALMONELLA TYPHIMURIUM; Strain/Indicator: TA1538; Metabolic Activation: NONE; Method: STANDARD PLATE
The source made the active and inactive calls. The rule behind the calls is not given here.
Possible outcomes: 1 = active, -1 = inactive

compound=C=C[Si](C)(C)CCl measured_target="CCRIS mutagenicity, Ames/micronucleus/aberration tests" category_label=-1
compound=O=C(CCl)NCO measured_target="CCRIS mutagenicity, Ames/micronucleus/aberration tests" category_label=-1
compound=O.O.O.O=C([O-])[C@H]([O-])[C@@H]([O-])C(=O)[O-].O=C([O-])[C@H]([O-])[C@@H]([O-])C(=O)[O-].[K+].[K+].[Sb+3].[Sb+3] measured_target="CCRIS mutagenicity, Ames/micronucleus/aberration tests" category_label=-1
compound="CCN(CC)CCCC(C)Nc1ccnc2cc(Cl)ccc12 (centres undefined)" measured_target="CCRIS mutagenicity, Ames/micronucleus/aberration tests" category_label=-1
compound=CC(C)CCCCCCOC(=O)c1ccccc1C(=O)OCCCCCCC(C)C measured_target="CCRIS mutagenicity, Ames/micronucleus/aberration tests" category_label=-1
compound=O=c1c(O)c(O)c1=O measured_target="CCRIS mutagenicity, Ames/micronucleus/aberration tests" category_label=-1
compound=CC[C@H](C)[C@@H]([C@@H](CC(=O)N1CCC[C@H]1[C@H](OC)[C@@H](C)C(=O)N[C@@H](Cc1ccccc1)c1nccs1)OC)N(C)C(=O)[C@@H](NC(=O)[C@H](C(C)C)N(C)C)C(C)C measured_target="CCRIS mutagenicity, Ames/micronucleus/aberration tests" category_label=-1
compound=O=C(O)c1nn(Cc2ccc(Cl)cc2Cl)c2ccccc12 measured_target="CCRIS mutagenicity, Ames/micronucleus/aberration tests" category_label=-1
compound=O=C(Nc1cc(Cl)cc(Cl)c1O)c1c(O)c(Cl)cc(Cl)c1Cl measured_target="CCRIS mutagenicity, Ames/micronucleus/aberration tests" category_label=-1
compound="CCOCC(O)COc1ccc(NC(=O)CC[S+](C)C)cc1 (centres undefined)" measured_target="CCRIS mutagenicity, Ames/micronucleus/aberration tests" category_label=-1
compound=C=C[Si](C)(C)N[Si](C)(C)C=C measured_target="CCRIS mutagenicity, Ames/micronucleus/aberration tests" category_label=-1
compound=O=Nc1ccc2ccccc2c1 measured_target="CCRIS mutagenicity, Ames/micronucleus/aberration tests" category_label=1
compound=CCc1ccco1 measured_target="CCRIS mutagenicity, Ames/micronucleus/aberration tests" category_label=-1
compound=CS(=O)(=O)c1ccc(Cl)cc1 measured_target="CCRIS mutagenicity, Ames/micronucleus/aberration tests" category_label=-1
compound=CN(C)CCO measured_target="CCRIS mutagenicity, Ames/micronucleus/aberration tests" category_label=-1
compound=O=C(O)CNCP(=O)(O)O measured_target="CCRIS mutagenicity, Ames/micronucleus/aberration tests" category_label=-1
compound=Nc1ccc2cc(S(=O)(=O)O)c(N=Nc3ccc(N=Nc4ccccc4)cc3OCCO)c(O)c2c1 measured_target="CCRIS mutagenicity, Ames/micronucleus/aberration tests" category_label=-1
compound=CN(C)N=Nc1ccc([N+](=O)[O-])cc1 measured_target="CCRIS mutagenicity, Ames/micronucleus/aberration tests" category_label=1
compound=CC(=O)[C@]1(O)Cc2c(O)c3c(c(O)c2[C@@H](O[C@H]2C[C@H](N)[C@H](O)[C@H](C)O2)C1)C(=O)c1c(O)cccc1C3=O measured_target="CCRIS mutagenicity, Ames/micronucleus/aberration tests" category_label=1
compound=C=CCc1ccc(OC)cc1 measured_target="CCRIS mutagenicity, Ames/micronucleus/aberration tests" category_label=-1
compound=O=[N+]([O-])c1cccc2c1[nH]c1ccccc12 measured_target="CCRIS mutagenicity, Ames/micronucleus/aberration tests" category_label=1
compound=O=c1oc2cc([N+](=O)[O-])ccc2c2ccccc12 measured_target="CCRIS mutagenicity, Ames/micronucleus/aberration tests" category_label=1
compound=Nc1ccc(S(=O)(=O)Nc2nccs2)cc1 measured_target="CCRIS mutagenicity, Ames/micronucleus/aberration tests" category_label=-1
compound=CC(=O)N(O)c1ccc([N+](=O)[O-])cc1 measured_target="CCRIS mutagenicity, Ames/micronucleus/aberration tests" category_label=1
